The reported measurements were obtained from PubChem BioAssay (NCI).

test system: UACC-62 melanoma; test: NCI tumour cell line growth inhibition, 48 h
Property: TGI; scope: individual compounds

Before answering, review these 5 worked examples.
[[record]]
compound = "N=C(N)/N=C(\\N)c1c(-c2cc(O)ccc2O)nc2sccn12"
reading = "> 100 µM"

[[record]]
compound = "CCOC(=O)CC(=O)C(=O)NNC1=NCCN1"
reading = "> 100 µM"

[[record]]
compound = "Cc1ccc(S(=O)(=O)N2c3ccccc3[C@H]3CCc4c([nH]c5ccccc45)[C@H]32)cc1"
reading = "> 100 µM"

[[record]]
compound = "O=C(O)C1=C(C(=O)Nc2ccccc2)C2C=CC1C2 (stereo unspecified)"
reading = "> 100 µM"

[[record]]
compound = "CN1C(=O)CN2C(Cl)(Cl)C2(c2ccccc2F)c2cc([N+](=O)[O-])ccc21 (stereo unspecified)"
reading = "> 100 µM"


Req: Indicate the recorded TGI value for this compound: `[O-]c1c[n+](CCCC[n+]2cc([O-])on2)no1`
Resp: > 100 µM

---

tested on: NCI/ADR-RES ovarian; assay: NCI tumour cell line growth inhibition, 48 h
endpoint-label: TGI

Examples with their reported TGI follow.
[[record]]
molecule = "COC(=O)C(Cc1cnc[nH]1)NC(=O)CNC(=O)CCCn1c(=O)c2c3ccccc3n(C)c2n2nnc(-c3ccccc3)c12 (stereo not given)"
reading = "> 100 µM"

[[record]]
molecule = "COc1ccccc1/C=C/C(=O)c1c(O)cc2occc2c1OC"
reading = "> 100 µM"

[[record]]
molecule = "COC(=O)NC1(NC(=O)OC)NC(=O)c2cc(OC)c(OC)cc2N1"
reading = "> 100 µM"

[[record]]
molecule = "N=c1oc2c(Br)cc(Br)cc2cc1C(=O)Nc1ccccn1"
reading = "> 100 µM"


Let us examine a further case.
Req: Output TGI of `c1ccc(CSc2ccccc2CN2CCN(Cc3ccccc3SCc3ccccc3)CCN(Cc3ccccc3SCc3ccccc3)CC2)cc1`
Resp: 6.85 µM

---

# maps each entry to its TGI
system: HOP-62 NSCLC; assay: NCI tumour cell line growth inhibition, 48 h

Record excerpt, results attached:
[[record]]
smiles_representation = "Nc1nc(Cl)cc(NCCCNc2cc(Cl)nc(N)n2)n1"
reading = "> 100 µM"

[[record]]
smiles_representation = "CC(C)N(C(=O)C1(C)CC1)C(C)C"
reading = "> 100 µM"

[[record]]
smiles_representation = "Cc1ccc2nc(N/N=C/c3ccc(C)s3)cc(C)c2c1"
reading = "31.3 µM"

[[record]]
smiles_representation = "COc1ccc(/C=N/N=C(\\N)NO)c(Cl)c1O"
reading = "72.1 µM"

[[record]]
smiles_representation = "COc1cc(-c2nc(NC(C)=O)sc2-c2ccnc(NCCNS(=O)(=O)c3ccccc3)n2)ccc1Cl"
reading = "> 100 µM"


Req: Give the reported value of TGI for this record: `COc1ccc(/C=C/C(=O)C(C)(C)CN2CCCCC2)cc1`
Resp: > 100 µM

Req: Give me measured TGI, please, for this compound: `CCCCCN1CCN(c2ncccn2)CC1`
Resp: > 100 µM

Req: Dear colleague, please send me the reported TGI for `C#CCSc1n[nH]c(-c2ccco2)n1` when you can.
Resp: > 100 µM

Req: Hello, please tell me recorded TGI for this one: `CCOC(=O)CC(=O)C(=O)NNC1=NCCN1`
Resp: > 100 µM

Req: Return the recorded TGI value; entry: `CCOC(=O)Cc1nc2ccccc2s1`
Resp: 52 µM

---

Overview of reported TGI across a group of compounds:
system: NCI-H460 lung; experiment: NCI tumour cell line growth inhibition, 48 h

[[record]]
compound = "COc1c2c3ccccc3nc-2n(C)c2ccccc12"
endpoint_label = "TGI"
reading = "32.1 µM"

[[record]]
compound = "C=C1[C@H](OC(=O)C(C)C)[C@@H](OC(C)=O)[C@@H](OC(C)=O)C(C)(C)[C@@H]2O[C@H]2[C@@H](C)C(=O)[C@@]2(OC(C)=O)C[C@@](C)(OC(C)=O)[C@H](OC(C)=O)[C@@H]2[C@H]1OC(C)=O"
endpoint_label = "TGI"
reading = "> 100 µM"

[[record]]
compound = "COc1cc2c3c(c4ccc(OC)c(OC)c4c2cc1OC)CN1CCC[C@@H]1C3"
endpoint_label = "TGI"
reading = "2.09 µM"


Please look at the following compound next.
Req: Kindly indicate its recorded TGI. Item: `N.N.N.N.O=NN1CCCCCC1(P(=O)([O-])[O-])P(=O)([O-])[O-].[Pt+4].[Pt+4]`
Resp: > 100 µM

---

system: SNB-19 CNS; assay: NCI tumour cell line growth inhibition, 48 h
Reported TGI values follow for various compounds

Example entries begin here.
[[record]]
compound = "O=C1CCCC2=C1CC1=C(CCCC1=O)N2c1ccccc1C(=O)O"
reading = "> 100 µM"

[[record]]
compound = "C=CCCCn1ccc2ccccc21"
reading = "> 100 µM"

[[record]]
compound = "Cc1cc(C(=O)Nc2nc3cccc(Cl)c3n2[C@@H]2CCCCN(C(=O)/C=C/CN(C)C)C2)ccn1"
reading = "31.2 µM"

[[record]]
compound = "O=Nc1ccc(O)c2ccccc12"
reading = "6.65 µM"

[[record]]
compound = "CCSC1=N/C(=C\\c2ccco2)C(NN)=N1"
reading = "> 50 µM"

[[record]]
compound = "Cc1nnc2sc(Cl)nn12"
reading = "> 100 µM"

[[record]]
compound = "C=C1[C@H](OC(=O)C(C)C)[C@@H](OC(C)=O)[C@@H](OC(C)=O)C(C)(C)[C@@H]2O[C@H]2[C@@H](C)C(=O)[C@@]2(OC(C)=O)C[C@@](C)(OC(C)=O)[C@H](OC(C)=O)[C@@H]2[C@H]1OC(C)=O"
reading = "> 100 µM"

[[record]]
compound = "CC(=O)[O-].CC(=O)[O-].O=C(N/N=C/c1cc(Cl)cc(Cl)c1O)c1ccncc1.[Ni+2]"
reading = "> 100 µM"

[[record]]
compound = "c1ccc(N=c2snc3scc(-c4ccccc4)n23)cc1"
reading = "> 100 µM"

[[record]]
compound = "NC(=O)/C(=C\\c1ccncc1)c1cccc2ccccc12"
reading = "> 100 µM"


Req: Report measured TGI; entry is `CN(C)c1ncnc2c1Cc1ccccc1C(=O)N2C`
Resp: > 100 µM

Req: # return recorded TGI for input CC1CN(c2ccc(Cl)cc2)CC(C)(C)OC(=O)O1 (stereo not given)
Resp: > 100 µM

Req: Tell me measured TGI for `COC(=O)[C@H]1C(=O)[C@@]2(C)[C@H]([C@H](OC(=O)c3ccccc3)[C@]3(O)C[C@H](OC(=O)[C@H](O)[C@@H](NC(=O)c4ccc(F)cc4)c4ccccc4)C(C)=C1C3(C)C)[C@]1(OC(C)=O)CO[C@@H]1C[C@@H]2O` please.
Resp: > 25 µM

Req: Check the records and state TGI for `CN[C@@H](C)C(=O)N[C@H]1CN(C(=O)CC(C)C)CC[C@H]2CC[C@@H](C(=O)NC(c3ccccc3)c3ccccc3)N2C1=O`
Resp: > 100 µM

---

This section presents compounds with their documented TGI values.
tested on: A498 renal; assay: NCI tumour cell line growth inhibition, 48 h
Note: unit µM is implicit; provide only the numeric part.

Here is how some compounds turned out for TGI.
[[record]]
compound = "Cc1ccc2c(c1)C(C)Cc1c(ncnc1-n1cnc3cc(C)ccc31)N2C (configuration not stated)"
endpoint_label = "TGI"
reading = 2

[[record]]
compound = "O=C(c1ccc(OCCN2CCCCC2)cc1)c1c(-c2ccc(O)cc2)sc2cc(O)ccc12"
endpoint_label = "TGI"
reading = 26.2

[[record]]
compound = "O=C1Oc2ccccc2C(=O)/C1=C/N1C(=O)/C(=C/c2ccc3c(c2)OCO3)SC1=S"
endpoint_label = "TGI"
reading = 13.2


Req: Report the value of TGI obtained on A498 renal for `O=C1/C=C/[C@@H](O)[C@@H]2C[C@@H](O)C[C@H]2/C=C/CCC[C@H](CCc2ccc(C(F)(F)F)cc2)O1` .
Resp: 0.277

---

system: SR leukemia; experiment: NCI tumour cell line growth inhibition, 48 h
endpoint-label: TGI

Worked examples follow.
[[record]]
compound = "CN(C)CCCNC(=O)c1ccc2oc3cc4ccccc4c(=O)n3c2c1"
reading = "> 50 µM"

[[record]]
compound = "O=Nc1c(-c2c(O)[nH]c3ccccc23)[nH]c2ccccc12"
reading = "> 100 µM"

[[record]]
compound = "O=C(N/N=C/c1ccccc1O)C(O)(c1ccccc1)c1ccccc1"
reading = "> 100 µM"

[[record]]
compound = "CNC1C(O)C(OC2C(N)CC(N)C(OC3OC(CN)=CCC3N)C2O)OCC1(C)O (stereo not given)"
reading = "> 100 µM"


Shift focus to the following entry.
Req: Supply TGI value. Item: CN1C(=O)CN2C(Cl)(Cl)C2(c2ccccc2F)c2cc([N+](=O)[O-])ccc21 (stereo not given)
Resp: > 100 µM
